Biological target: potassium channels (Sus scrofa)
Assay: Functional potassium channel opening activity in isolated Landrace pig bladder strips (field-stimulated twitch)
Conditions: ED50 for P1075 divided by ED50 for the test agonist, averaged over tissues
attribute-measured: Landrace Pig Bladder Index

compound	observed-result
O=S1(=O)CCC2=C1C(c1ccc(F)c(Br)c1)C1=C(CCS1(=O)=O)N2	0.17
O=C1CCCC2=C1C(c1ccc(F)c(Cl)c1)C1=C(CCS1(=O)=O)N2 (single isomer, unassigned; (-)) [Example 110]	0.17
O=C1CCC2=C1C(c1ccc(F)c(Cl)c1)C1=C(CCS1(=O)=O)N2 (stereo not shown)	0.71
N#Cc1cccc(C2C3=C(CCC3=O)NC3=C2S(=O)(=O)CC3)c1 (single isomer, unassigned; (+)) [Example 164]	0.0071
O=S1(=O)CCC2=C1C(c1ccc(F)c(Cl)c1)C1=C(CCS1(=O)=O)N2	0.081
O=C1CCC2=C1C(c1ccc(F)c(C(F)(F)F)c1)C1=C(CCS1(=O)=O)N2 (stereo not shown)	0.42
O=C1CCCC2=C1C(c1ccc(Cl)c([N+](=O)[O-])c1)C1=C(CCS1(=O)=O)N2 (single isomer, unassigned; (+)) [Example 99]	0.18

---

Molecular target: potassium channels (Sus scrofa)
Experiment: Functional potassium channel opening activity in isolated Landrace pig bladder strips (field-stimulated twitch)
Conditions: pig, maximal efficacy relative to P1075; field stimulation 0.05Hz, 0.5 milli-seconds at 20 volts
# Emax per entry
attribute-measured: Emax (%)

compound	unit-annotation	observed-result
O=C1CCCC2=C1C(c1ccc(F)c(C(F)(F)F)c1)C1=C(CCS1(=O)=O)N2 (single isomer, unassigned; (-))	%	100
O=C1CCCC2=C1C(c1ccc(Br)s1)C1=C(CCS1(=O)=O)N2 (single isomer, unassigned)	%	100
O=C1CCCC2=C1C(c1ccc(Cl)c([N+](=O)[O-])c1)C1=C(CCS1(=O)=O)N2 (single isomer, unassigned; (+)) [Example 99]	%	100
O=C1CCCC2=C1C(c1ccc(Cl)c([N+](=O)[O-])c1)C1=C(CCS1(=O)=O)N2 (stereo not drawn) [Example 34]	%	100
CC1=C(C(=O)O)C(c2ccc(F)c(Br)c2)C2=C(CCCS2(=O)=O)N1 (stereo not drawn)	%	100
O=C1CCCC2=C1C(c1ccc(Cl)c(Cl)c1)C1=C(CCS1(=O)=O)N2 (single isomer, unassigned; (+))	%	84
O=C1CCCC2=C1C(c1cc(Br)c(F)cc1O)C1=C(CCS1(=O)=O)N2 (stereo not drawn)	%	100
O=C1CCC2=C1C(c1ccc(Cl)c([N+](=O)[O-])c1)C1=C(CCS1(=O)=O)N2 (stereo not drawn) [Example 44]	%	99
Cc1ccc(C2C3=C(CCCC3=O)NC3=C2S(=O)(=O)CC3)cc1[N+](=O)[O-] (single isomer, unassigned)	%	99
O=S1(=O)CCC2=C1C(c1ccc3nonc3c1)C1=C(CCS1(=O)=O)N2	%	98
O=C1CCCC2=C1C(c1ccc(Cl)c(Cl)c1)C1=C(CCCS1(=O)=O)N2 (stereo not drawn)	%	96
O=C1CCCC2=C1C(c1ccc(Br)c(Br)c1)C1=C(CCS1(=O)=O)N2 (single isomer, unassigned)	%	99
O=C1CCC2=C1C(c1ccc(Cl)c([N+](=O)[O-])c1)C1=C(CCCS1(=O)=O)N2 (stereo not drawn)	%	98
O=S1(=O)CCC2=C1C(c1ccc(Cl)c(C(F)(F)F)c1)C1=C(CCS1(=O)=O)N2	%	94
N#Cc1cccc(C2C3=C(CCC3=O)NC3=C2S(=O)(=O)CC3)c1 (stereo not drawn) [Example 52]	%	100

---

compound	melting point
O=[N+]([O-])c1cccc(C2C3=C(CCS3(=O)=O)NC3=C2S(=O)(=O)CC3)c1	248 to 252 °C
O=C1CCCC2=C1C(c1ccc(F)c(Cl)c1)C1=C(CCS1(=O)=O)N2 (stereo not drawn) [Example 81]	> 260 °C
N#Cc1ccc(C2C3=C(CCCC3=O)NC3=C2S(=O)(=O)CC3)s1 (stereo not drawn)	> 250 °C
CC(=O)C1=C(C)NC2=C(C1c1ccc(F)c(Br)c1)S(=O)(=O)CCC2 (stereo not drawn)	> 260 °C
O=C1CCC2=C1C(c1ccc(Br)s1)C1=C(CCS1(=O)=O)N2 (stereo not drawn)	246 to 247 °C
O=C1CCC2=C1C(c1ccc(Cl)c(Cl)c1)C1=C(CCS1(=O)=O)N2 (stereo not drawn) [Example 60]	> 260 °C
O=C1CCCC2=C1C(c1cccnc1)C1=C(CCS1(=O)=O)N2 (stereo not drawn)	> 250 °C
O=C1CCCC2=C1C(c1cc(Br)cs1)C1=C(CCS1(=O)=O)N2 (stereo not drawn)	> 250 °C
CC1=C(S(C)(=O)=O)C(c2ccc(Cl)c(Cl)c2)C2=C(CCC2=O)N1 (stereo not drawn)	218 to 220 °C

---

Biological target: potassium channels (Sus scrofa, UniProt F1SR11)
Test: Functional potassium channel opening activity in isolated Landrace pig bladder strips (field-stimulated twitch)
Conditions: pig, maximal efficacy relative to P1075; field stimulation 0.05Hz, 0.5 milli-seconds at 20 volts

molecule	target-system	Emax
O=C1CCC2=C1C(c1ccc(Cl)c(Cl)c1)C1=C(CCS1(=O)=O)N2 (single isomer, unassigned) [Example 146]	potassium channels (Sus scrofa, UniProt F1SR11)	100%
CC1=C(S(C)(=O)=O)C(c2cccc([N+](=O)[O-])c2)C2=C(CCCC2=O)N1 (stereo not shown)	potassium channels (Sus scrofa, UniProt F1SR11)	78%
O=C1CCC2=C1C(c1ccc(F)c(Br)c1)C1=C(CCS1(=O)=O)N2 (single isomer, unassigned; (-)) [Example 86]	potassium channels (Sus scrofa, UniProt F1SR11)	100%
O=C1CCCC2=C1C(c1ccc(F)c(Cl)c1)C1=C(CCS1(=O)=O)N2 (stereo not shown) [Example 81]	potassium channels (Sus scrofa, UniProt F1SR11)	91%
CC(=O)C1=C(C)NC2=C(C1c1ccc(Cl)c([N+](=O)[O-])c1)S(=O)(=O)CCC2 (stereo not shown)	potassium channels (Sus scrofa, UniProt F1SR11)	97%
O=C1CCCC2=C1C(c1cc(Br)ccc1O)C1=C(CCS1(=O)=O)N2 (stereo not shown)	potassium channels (Sus scrofa, UniProt F1SR11)	98%
O=C1CCCC2=C1C(c1ccc(F)c(Br)c1)C1=C(CCCS1(=O)=O)N2 (single isomer, unassigned; (+)) [Example 93]	potassium channels (Sus scrofa, UniProt F1SR11)	100%
O=C1CCCC2=C1C(c1ccc3nonc3c1)C1=C(CCS1(=O)=O)N2 (single isomer, unassigned; (+))	potassium channels (Sus scrofa, UniProt F1SR11)	100%
N#Cc1cccc(C2C3=C(CCCC3=O)NC3=C2S(=O)(=O)CC3)c1 (stereo not shown) [Example 30]	potassium channels (Sus scrofa, UniProt F1SR11)	99%
O=C1CCC2=C1C(c1ccc(Cl)c([N+](=O)[O-])c1)C1=C(CCS1(=O)=O)N2 (single isomer, unassigned) [Example 161]	potassium channels (Sus scrofa, UniProt F1SR11)	96%
O=C1CCCC2=C1C(c1cccc([N+](=O)[O-])c1)C1=C(CCCS1(=O)=O)N2 (stereo not shown)	potassium channels (Sus scrofa, UniProt F1SR11)	100%
CC(=O)C1=C(C)NC2=C(C1c1ccc(F)c(Br)c1)S(=O)(=O)CCC2 (stereo not shown)	potassium channels (Sus scrofa, UniProt F1SR11)	94%
O=S1(=O)CCC2=C1C(c1ccc(Cl)c(Cl)c1)C1=C(CCS1(=O)=O)N2	potassium channels (Sus scrofa, UniProt F1SR11)	93%
O=C1CCC2=C1C(c1ccc(Cl)c(Cl)c1)C1=C(CCS1(=O)=O)N2 (stereo not shown) [Example 60]	potassium channels (Sus scrofa, UniProt F1SR11)	100%
O=C1CCC2=C1C(c1ccc(F)c(Br)c1)C1=C(CCCS1(=O)=O)N2 (single isomer, unassigned; (+)) [Example 91]	potassium channels (Sus scrofa, UniProt F1SR11)	95%
O=C1CCCC2=C1C(c1ccc(F)c(-c3ccco3)c1)C1=C(CCS1(=O)=O)N2 (single isomer, unassigned)	potassium channels (Sus scrofa, UniProt F1SR11)	94%
N#Cc1cccc(C2C3=C(CCCC3=O)NC3=C2S(=O)(=O)CCC3)c1 (stereo not shown)	potassium channels (Sus scrofa, UniProt F1SR11)	96%
O=C1CCCC2=C1C(c1ccc(F)c(Br)c1)C1=C(CCS1(=O)=O)N2 (stereo not shown)	potassium channels (Sus scrofa, UniProt F1SR11)	98%
O=C1CCCC2=C1C(c1ccc(Cl)c(C(F)(F)F)c1)C1=C(CCS1(=O)=O)N2 (single isomer, unassigned; (-))	potassium channels (Sus scrofa, UniProt F1SR11)	100%
Cc1ccc(C2C3=C(CCCC3=O)NC3=C2S(=O)(=O)CC3)cc1C#N (single isomer, unassigned)	potassium channels (Sus scrofa, UniProt F1SR11)	98%
O=C1CCCC2=C1C(c1cccc(Cl)c1)C1=C(CCCS1(=O)=O)N2 (stereo not shown)	potassium channels (Sus scrofa, UniProt F1SR11)	100%
O=C1CCC2=C1C(c1ccc(F)c(Cl)c1)C1=C(CCS1(=O)=O)N2 (stereo not shown)	potassium channels (Sus scrofa, UniProt F1SR11)	100%
N#Cc1cccc(C2C3=C(CCC3=O)NC3=C2S(=O)(=O)CC3)c1 (single isomer, unassigned; (+)) [Example 164]	potassium channels (Sus scrofa, UniProt F1SR11)	94%
CC1=C(S(C)(=O)=O)C(c2cc(F)c(F)c(F)c2)C2=C(CCCC2=O)N1 (stereo not shown)	potassium channels (Sus scrofa, UniProt F1SR11)	77%
CC1(C)CCC2=C(C1=O)C(c1ccc(F)c(Br)c1)C1=C(CCS1(=O)=O)N2 (stereo not shown)	potassium channels (Sus scrofa, UniProt F1SR11)	100%
O=C1CCC2=C1C(c1ccc(F)c(Br)c1)C1=C(CCCS1(=O)=O)N2 (stereo not shown) [Example 40]	potassium channels (Sus scrofa, UniProt F1SR11)	98%
O=C1CCCC2=C1C(c1ccc(Cl)c([N+](=O)[O-])c1)C1=C(CCCS1(=O)=O)N2 (stereo not shown)	potassium channels (Sus scrofa, UniProt F1SR11)	94%
O=C1CCCC2=C1C(c1cc(Br)cs1)C1=C(CCS1(=O)=O)N2 (single isomer, unassigned)	potassium channels (Sus scrofa, UniProt F1SR11)	71%
O=C1CCCC2=C1[C@H](c1ccc(F)c(Br)c1)C1=C(CCS1(=O)=O)N2	potassium channels (Sus scrofa, UniProt F1SR11)	100%
O=C1CCC2=C1C(c1ccc(Br)c(Br)c1)C1=C(CCS1(=O)=O)N2 (stereo not shown)	potassium channels (Sus scrofa, UniProt F1SR11)	97%
CC1=C(C(=O)O)C(c2ccc(F)c(Br)c2)C2=C(CCS2(=O)=O)N1 (stereo not shown)	potassium channels (Sus scrofa, UniProt F1SR11)	98%
